# System: MS2 coat protein
# EXPERIMENT: apparent KD of MS2 coat protein; designed switch direction (-1 OFF switch, 1 ON switch): -1; higher = weaker reporter binding
# CONDITION SET: input ligand: FMN 200 uM
MEASUREMENT NAME: apparent KD of MS2 coat protein (nM)
Dear colleague, please return just the value in nM, with no unit written.

Enquiry: What does the data say about its apparent KD of MS2 coat protein? Entry: CUGAGUAGUCAGGAUAUGCUGUACAAAAGUACAGCAGAAGGGAUUACAUGAGGAUCACCCAUGUGAACUUCAUG [)mei Ex6 B21] (Eterna round: R97, puzzle: Exclusion 6)
Return: 681

Enquiry: What does the data say about its apparent KD of MS2 coat protein? Entry: UUAUACCUAGGAUAUACCUUUGGGUGUAGCCUAAUGUCUGGACAUGAGGAUCACCCAUGUAGAAGGAGGCGAAA [EX2 A.7] (Eterna round: R97, puzzle: Exclusion 2)
Return: 244

Enquiry: What does the data say about its apparent KD of MS2 coat protein? Entry: UCUCGCGGGCAAGGAUAUCCUACGCUGUUCUGGCCCGUGUAUGUUACAUGAGGAUCACCCAUGUGGGAGAAGGUGCACCAGGGC [Design 40] (Eterna round: R96, puzzle: Exclusion NG 2)
Return: 83.3

Enquiry: What does the data say about its apparent KD of MS2 coat protein? Entry: UGGAUAAUUGGAGGAUAUGCGACAUAAACCAUUGUAGAAGGCCAACAUGAGGAUCACCCAUGUGUCCCAGAGACCACAGAUCCA [Eternabot solution 9] (Eterna round: R96, puzzle: Exclusion NG 1)
Return: 36.9

Enquiry: What does the data say about its apparent KD of MS2 coat protein? Entry: GUACUGAAGCUUUGCUUUAGUCGUACAUGAGGAUCACCCAUGUAGGAUAUGGUAGGCUUUGCUUACUAGAAGGAUAGAGUGAUC [JL EXNG3 1.27] (Eterna round: R96, puzzle: Exclusion NG 3)
Return: 81.7

---

Documented apparent KD of K4 kissing-loop reporter across a set of sequences
# System: K4 kissing-loop RNA reporter;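 also: bound reporter read as fluorescence of individual clusters on recovered sequencing chips by microscopy, with normalized cluster intensities fitted with a binding model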
# EXPERIMENT: apparent KD of K4 kissing-loop reporter; higher = weaker reporter binding
# CONDITION SET: Eterna round: R107; input ligand: theophylline 20 uM
Dear colleague, please return just the value in nM, with no unit written.

Please review the entries below; each comes with its answer.
>>> reported_result("GGAUCCACCAGUGAUGUUGGAGAAAACUCCAAGGAUAUGACGAAAGUCAGAAGGUGGUAGACUGGACAAAGUCCGGUAGGAUCCA [FmnA10 A78]")
228
>>> reported_result("AGGCCCGGCCGAAAGGCCGGGCCAAGAGAUACCAGCAGCGAAAGCUGCCCUUGGCAGCUCACUUAGUGAUGUUAAGAGAUAAAUG [SS Theo A Tesla 1.2]")
424

Enquiry: What does the data say about its apparent KD of K4 kissing-loop reporter? Entry: UGGAGUUGACGAAAAGUCAACUCCUGGGAAGGAGCGGACGAAAGUCCAGGUAGGUCGCUCACUACCAGUGAUGUUGGUACUAAAA
Return: 200

---

# System: MS2 coat protein
# EXPERIMENT: apparent KD of MS2 coat protein; designed switch direction (-1 OFF switch, 1 ON switch): -1; higher = weaker reporter binding
# CONDITION SET: input ligand: FMN 200 uM
Documented apparent KD of MS2 coat protein across a set of sequences
Write the numeric value and follow it with the unit.

Please review the entries below; each comes with its answer.
>>> reported_result("ACUUACUGAGGAUAUACAUAGAUUUACAUGAGGAUCACCCAUGUUCCUCUAUGUAUAUAUGUAGAAGGCAGAAGAG [Mat - Exclusion 5 - JL Mod - D35] (Eterna round: R97, puzzle: Exclusion 5)")
"0.0563 µM"
>>> reported_result("GUGCGUGGCUAGGAUAUUGAGGAAUUUAGUCAGCGAGAAGGAGCCACAUGAGGAUCACCCAUGUGGUGAAGCUC [salish99_ex6_r4_001] (Eterna round: R97, puzzle: Exclusion 6)")
"0.0702 µM"

Enquiry: What does the data say about its apparent KD of MS2 coat protein? Entry: AGCGUGUGAGAAGGAUAUCGACCCGAGACAGAUUGAGAAGGUCUCACAUGAGGAUCACCCAUGUGGACAGGGCGAGCUCCAGUC [Eternabot solution 11] (Eterna round: R96, puzzle: Exclusion NG 1)
Return: 0.0283 µM

Enquiry: What does the data say about its apparent KD of MS2 coat protein? Entry: ACUGUGACGUAGGAUAUCUCCUAAUUGCGCCGGAGAGAAGGACGUACAUGAGGAUCACCCAUGUGCCCUCGGAA [EX6 B.13] (Eterna round: R97, puzzle: Exclusion 6)
Return: 0.3 µM

Enquiry: What does the data say about its apparent KD of MS2 coat protein? Entry: GUUUGCACGCUGCGGUCCUACAUGAGGAUCACCCAUGUGGUCUGGUGGCGUGGGUCGCCGGACUUGGCUCGUCUUGG [salish99_S_TOV1_R5_039] (Eterna round: R97, puzzle: Sensor, turn-off variant 1)
Return: 0.015 µM

Origin of the recorded values: the supplement of paper PMC9170038
